Origin of the recorded values: patent US12590066B2

tested.on: tau protein (Homo sapiens, UniProt P10636)
Construct: BiFC fluorescent-protein fragments (type and halves not specified); expressed in transfected cells
Sequence (P10636 1-441 isoform P10636-8): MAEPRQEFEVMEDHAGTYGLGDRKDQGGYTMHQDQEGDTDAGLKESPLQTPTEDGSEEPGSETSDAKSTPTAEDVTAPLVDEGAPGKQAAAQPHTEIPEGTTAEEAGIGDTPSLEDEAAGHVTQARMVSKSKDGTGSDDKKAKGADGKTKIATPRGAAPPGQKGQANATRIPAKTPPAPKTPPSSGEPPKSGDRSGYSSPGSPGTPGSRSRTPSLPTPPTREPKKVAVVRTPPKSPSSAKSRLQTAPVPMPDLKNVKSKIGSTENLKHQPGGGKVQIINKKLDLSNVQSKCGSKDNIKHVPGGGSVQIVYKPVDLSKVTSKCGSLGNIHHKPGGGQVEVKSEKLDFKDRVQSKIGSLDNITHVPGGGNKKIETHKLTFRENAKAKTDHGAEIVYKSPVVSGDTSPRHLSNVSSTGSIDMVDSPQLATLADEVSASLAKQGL
test.summary: Tau-BiFC cell model, inhibition of Forskolin-induced tau protein aggregation
Assay type: cell-based
experimental.conditions: 10 μM compound, Forskolin 30 μM, 48 hours; Forskolin-only group = 100% tau protein-aggregated state
metric.name: Tau BiFC in cells Response (% @10 μM) (%)
Report the value in % with no unit label.

Check out these entries, answers already filled in.
Cn1c(=O)n(C(F)F)c2cc(NN=C(C#N)C#N)cnc21 | 23
CC(C)n1c(=O)n(C(C)C)c2ncc(NN=C(C#N)C#N)cc21 | −45
CC(C)n1c(=O)n(C)c2ccc(NN=C(C#N)C#N)cc21 | −57
Cn1c(=O)[nH]c2cc(NN=C(C#N)C#N)ccc21 | 0
Cn1c(=O)ccc2cc(NN=C(C#N)C#N)ccc21 | −16

Challenge: Please state recorded Tau BiFC in cells Response (% @10 μM) (tested on tau protein (Homo sapiens, UniProt P10636)) of Cn1c(=O)sc2cc(NN=C(C#N)C#N)ccc21
Response given: 0

Challenge: Input Cn1c(=O)n(C)c2ncc(NN=C(C#N)C#N)cc21
Response given: 0

Challenge: Could you do the same for COc1cc(NN=C(C#N)C#N)cc2c1n(C)c(=O)n2C , please?
Response given: −43

Challenge: Quick one: CC(C)n1c(=O)n(C(C)C)c2cc(NN=C(C#N)C#N)ccc21
Response given: 0

Challenge: // query: CC(C)n1ccc2ccc(NN=C(C#N)C#N)cc2c1=O
Response given: 0

---

tested.on: CYP1A2 (Homo sapiens)
Construct: human liver microsomes (0.25 mg/mL); from tissue; host or cells: human liver microsomes
Sequence (P05177 whole entry): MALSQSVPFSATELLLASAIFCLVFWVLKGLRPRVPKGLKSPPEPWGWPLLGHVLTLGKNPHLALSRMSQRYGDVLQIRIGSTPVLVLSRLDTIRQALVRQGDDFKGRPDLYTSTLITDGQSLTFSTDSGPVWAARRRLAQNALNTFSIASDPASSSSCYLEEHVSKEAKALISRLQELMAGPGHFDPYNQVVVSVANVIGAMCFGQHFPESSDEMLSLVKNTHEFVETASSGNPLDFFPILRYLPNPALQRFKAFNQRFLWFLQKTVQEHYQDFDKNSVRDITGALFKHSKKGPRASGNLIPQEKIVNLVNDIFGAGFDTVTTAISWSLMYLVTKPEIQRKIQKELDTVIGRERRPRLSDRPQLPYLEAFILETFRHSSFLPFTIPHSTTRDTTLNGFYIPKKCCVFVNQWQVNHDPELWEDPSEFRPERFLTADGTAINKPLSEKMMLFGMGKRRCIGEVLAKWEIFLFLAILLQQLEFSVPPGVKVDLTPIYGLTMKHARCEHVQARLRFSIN
test.summary: Inhibitory effect on CYP coenzyme activity, human liver microsomes
Format: in vitro ADME
experimental.conditions: 10 μM compound, human liver microsomes 0.25 mg/mL, substrate phenacetin, 15 minutes
Threshold 80%: CYP1A2 coenzyme activity (%) with respect to control group not treated strictly smaller gives y, otherwise n.

Previously resolved entries follow.
Cn1c(=O)n(C)c2cc(NN=C(C#N)C#N)ccc21 [Compound 22] | n
CC(C)n1c(=O)n(C(F)F)c2cc(NN=C(C#N)C#N)ccc21 [Compound 43] | y
N#CC(C#N)=NNc1ccc2c(c1)n(C(F)F)c(=O)n2C(F)F [Compound 24] | y
N#CC(C#N)=NNc1ccc2c(c1)sc(=O)n2C(F)F [Compound 19] | y
Cn1c(=O)n(C)c2ncc(NN=C(C#N)C#N)cc21 [Compound 12] | n
CC(C)n1ccc2c(NN=C(C#N)C#N)cccc2c1=O [Compound 6] | y

Challenge: Consider CC(C)n1c(=O)n(C2CC2)c2ncc(NN=C(C#N)C#N)cc21 [Compound 53] . Does its CYP1A2 coenzyme activity (%) with respect to control group not treated lie strictly below 80%?
Response given: n

Challenge: Now the compound Cn1c(=O)[nH]c2cc(NN=C(C#N)C#N)ccc21 [Compound 17]
Response given: y

Challenge: Next record, please: CC(C)n1c(=O)oc2ccc(NN=C(C#N)C#N)cc21 [Compound 29]
Response given: n

Challenge: Same question, Cn1ccc2c(NN=C(C#N)C#N)cccc2c1=O [Compound 5] this time
Response given: y

Challenge: Similarly, CC(C)n1c(=O)n(C(C)C)c2ncc(NN=C(C#N)C#N)cc21 [Compound 34] ?
Response given: n

---

Measured CYP2C9 coenzyme activity (%) with respect to control group not treated, listed per entry for reference.
tested.on: CYP2C9 (Homo sapiens)
Construct: human liver microsomes (0.25 mg/mL); from tissue; host or cells: human liver microsomes
test.summary: Inhibitory effect on CYP coenzyme activity, human liver microsomes
Assay type: in vitro ADME
experimental.conditions: 10 μM compound, human liver microsomes 0.25 mg/mL, substrate diclofenac, 15 minutes
Quick reminder: number only, in %, skip the unit.

Cc1cc2c(NN=C(C#N)C#N)cccc2c(=O)n1C | 29.8

# evaluate next
Challenge: Which value of CYP2C9 coenzyme activity (%) with respect to control group not treated has been reported for CC(C)n1c(=O)n(C(C)C)c2cc(NN=C(C#N)C#N)ccc21 in the records?
Response given: 46.4

---

tested.on: CYP2D6 (Homo sapiens, UniProt P10635)
Construct: human liver microsomes (0.25 mg/mL); from tissue; host or cells: human liver microsomes
Sequence (P10635 whole entry): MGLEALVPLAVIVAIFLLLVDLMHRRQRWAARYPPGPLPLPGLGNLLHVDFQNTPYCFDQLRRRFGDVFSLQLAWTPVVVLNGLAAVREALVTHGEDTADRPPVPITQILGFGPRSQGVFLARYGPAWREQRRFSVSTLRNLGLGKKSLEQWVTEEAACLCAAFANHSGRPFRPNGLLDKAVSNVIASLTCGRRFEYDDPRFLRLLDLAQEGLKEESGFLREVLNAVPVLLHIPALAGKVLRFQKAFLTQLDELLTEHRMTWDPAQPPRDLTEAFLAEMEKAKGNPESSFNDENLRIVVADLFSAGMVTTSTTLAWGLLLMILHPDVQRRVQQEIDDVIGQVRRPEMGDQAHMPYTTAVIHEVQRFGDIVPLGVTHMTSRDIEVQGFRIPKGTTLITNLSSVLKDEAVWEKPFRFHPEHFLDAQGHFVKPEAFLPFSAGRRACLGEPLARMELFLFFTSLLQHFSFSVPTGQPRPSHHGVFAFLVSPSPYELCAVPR
test.summary: Inhibitory effect on CYP coenzyme activity, human liver microsomes
Type: in vitro ADME
experimental.conditions: 10 μM compound, human liver microsomes 0.25 mg/mL, substrate dextromethorphan, 15 minutes
Method: The inhibitory effects of the compounds prepared according to Examples 1 to 57 on CYP coenzyme activity were identified. […] Metabolites of each CYP coenzyme indicator drug generated through the reaction were analyzed using the Shimadzu Nexera XR system and TSQ Vantage (Thermo). […] The generated metabolites were quantified using a multiple reaction monitoring (MRM) quantification mode, and Xcalibur (version 1.6.1) was used for data analysis. […]
metric.name: CYP2D6 coenzyme activity (%) with respect to control group not treated

N#CC(C#N)=NNc1cccc2c(=O)[nH]ccc12 [Compound 4] | 91.1%
CCn1c(=O)n(C)c2cc(NN=C(C#N)C#N)cnc21 [Compound 48] | >100%
CC(C)n1c(=O)n(C(C)C)c2ncc(NN=C(C#N)C#N)cc21 [Compound 34] | 99.1%

Challenge: Suppose we examine the compound Cn1c(=O)n(C)c2ncc(NN=C(C#N)C#N)cc21 [Compound 12] ; what CYP2D6 coenzyme activity (%) with respect to control group not treated value has been reported?
Response given: >100%

---

Quick reference: Cell viability (% @10 μM) of the listed items.
Test system: Tau-BiFC cells
test.summary: Cell viability (stained nuclei count) in Tau-BiFC cells
Assay type: cell-based
experimental.conditions: 10 μM compound, 48 hours; Forskolin-only group = 100% cell viability
Procedure: In order to select novel tau protein aggregation-inhibiting substances, tau-BiFC cell model, in which formation of tau oligomers in living cells is easily observed, was used. Tau-BiFC cells were aliquoted into a 384-well plate. […] After 48 hours, nuclei in the cells were stained using Hoechst (at a treatment concentration of 2 μg/mL), and BiFC fluorescence intensity was automatically measured using Operetta (PerkinElmer) to count stained nuclei in each well out of the entire well plate. […]
The reply should be a number in %, with the unit left off.

Check out these entries, answers already filled in.
CC(C)n1c(=O)n(C(C)C)c2cc(NN=C(C#N)C#N)ccc21 [Compound 23] | 117
CCn1c(=O)n(C(F)F)c2cc(NN=C(C#N)C#N)ccc21 [Compound 39] | 106
Cn1c(=O)n(C)c2cc(NN=C(C#N)C#N)c(Cl)cc21 [Compound 10] | 145.3
Cn1c(=O)n(-c2ccccc2)c2cc(NN=C(C#N)C#N)cnc21 [Compound 47] | 117

// switching to the query compound
Challenge: Which Cell viability (% @10 μM) is reported for this compound? CC(C)n1c(=O)n(C2CC2)c2ncc(NN=C(C#N)C#N)cc21 [Compound 53]
Response given: 125

---

tested.on: CYP2C9 (Homo sapiens, UniProt P11712)
Construct: human liver microsomes (0.25 mg/mL); from tissue; host or cells: human liver microsomes
Sequence (P11712 whole entry): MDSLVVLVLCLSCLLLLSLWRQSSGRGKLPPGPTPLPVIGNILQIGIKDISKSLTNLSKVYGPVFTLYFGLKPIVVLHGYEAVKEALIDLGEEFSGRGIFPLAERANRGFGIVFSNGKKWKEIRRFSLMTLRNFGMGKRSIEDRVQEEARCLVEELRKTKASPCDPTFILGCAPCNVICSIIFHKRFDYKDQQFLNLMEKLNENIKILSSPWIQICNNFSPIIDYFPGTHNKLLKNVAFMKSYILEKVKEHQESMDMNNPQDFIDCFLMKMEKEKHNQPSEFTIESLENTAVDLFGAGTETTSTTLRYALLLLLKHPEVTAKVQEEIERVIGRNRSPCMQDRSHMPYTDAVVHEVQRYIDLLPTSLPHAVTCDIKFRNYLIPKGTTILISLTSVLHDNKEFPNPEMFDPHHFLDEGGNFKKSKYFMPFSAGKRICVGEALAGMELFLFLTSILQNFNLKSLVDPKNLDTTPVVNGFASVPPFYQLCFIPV
test.summary: Inhibitory effect on CYP coenzyme activity, human liver microsomes
Type: in vitro ADME
experimental.conditions: 10 μM compound, human liver microsomes 0.25 mg/mL, substrate diclofenac, 15 minutes
metric.name: CYP2C9 coenzyme activity (%) with respect to control group not treated
# value in %; strip the unit string

CC(C)n1c(=O)n(C2CC2)c2ncc(NN=C(C#N)C#N)cc21 | 75.3

Challenge: # query: CYP2C9 coenzyme activity (%) with respect to control group not treated | item CC(C)n1c(=O)sc2cc(NN=C(C#N)C#N)ccc21 | system: CYP2C9 (Homo sapiens, UniProt P11712)
Response given: 7.5

Challenge: Please answer likewise for CCn1c(=O)n(C)c2ccc(NN=C(C#N)C#N)cc21
Response given: 72.5

Challenge: Same again, this time with Cn1c(=O)[nH]c2cc(NN=C(C#N)C#N)ccc21
Response given: 81.2

Challenge: Further, for Cn1c(=O)n(C)c2cc(NN=C(C#N)C#N)ccc21 ?
Response given: 99

---

tested.on: tau protein (Homo sapiens)
Construct: BiFC fluorescent-protein fragments (type and halves not specified); expressed in transfected cells
test.summary: Tau-BiFC cell model, inhibition of Forskolin-induced tau protein aggregation
Assay type: cell-based
experimental.conditions: 10 μM compound, Forskolin 30 μM, 48 hours; Forskolin-only group = 100% tau protein-aggregated state
Listed next: entries and their corresponding Tau BiFC in cells Response (% @10 μM).
Numbers only; they are read as %.

Please review the following examples before continuing.
Cn1c(=O)n(C)c2cc(NN=C(C#N)C#N)ccc21 | 0
Cn1ccc2ccc(NN=C(C#N)C#N)cc2c1=O | 0
Cn1c(=O)n(C)c2c(Cl)cc(NN=C(C#N)C#N)cc21 | 0
CC(C)n1c(=O)sc2cc(NN=C(C#N)C#N)ccc21 | 0

Okay, now this compound:
Challenge: So what's the measured Tau BiFC in cells Response (% @10 μM) for this one? CCn1c(=O)n(C(C)C)c2cc(NN=C(C#N)C#N)cnc21
Response given: −34
